Test target: WDR5 (Homo sapiens (Human))
Condition parameters: FPA and TR-FRET binding affinity, WDR5 WIN-site
pKi: −log10 of the molar value.
Measured pKi, listed per entry for reference.

[
  {
    "Compound": "Cc1cc(Cl)nc(C(=O)N[C@@H]2CCc3ccc(-c4cn5c(n4)CCC5)cc32)c1",
    "Test target": "WDR5 (Homo sapiens (Human))",
    "pKi": 6.11
  },
  {
    "Compound": "CC(C)C(=O)N1CCCC(C(=O)NC2CCc3ccc(-c4cn5c(n4)CCC5)cc32)C1 (stereo not shown)",
    "Test target": "WDR5 (Homo sapiens (Human))",
    "pKi": 7.15
  },
  {
    "Compound": "O=C(NC1CCc2ccc(-c3cn4c(n3)CCC4)cc21)C1CCCN(C(=O)CC(F)(F)F)C1 (stereo not shown)",
    "Test target": "WDR5 (Homo sapiens (Human))",
    "pKi": 7.05
  },
  {
    "Compound": "Cc1cc(C(=O)N[C@@H]2CCc3ccc(-c4cn5c(n4)CCC5)cc32)cc(=O)[nH]1",
    "Test target": "WDR5 (Homo sapiens (Human))",
    "pKi": 6.37
  },
  {
    "Compound": "O=C(N[C@@H]1CCc2ccc(-c3cn4c(n3)CCC4)cc21)c1ccncc1F",
    "Test target": "WDR5 (Homo sapiens (Human))",
    "pKi": 5.43
  },
  {
    "Compound": "O=C(Cc1ccc(Cl)c(F)c1)N[C@@H]1CCc2ccc(-c3cn4c(n3)CCC4)cc21",
    "Test target": "WDR5 (Homo sapiens (Human))",
    "pKi": 8.63
  },
  {
    "Compound": "COc1ccc(C(=O)N[C@@H]2CCc3ccc(-c4cn5c(n4)CCC5)cc32)cn1",
    "Test target": "WDR5 (Homo sapiens (Human))",
    "pKi": 6.76
  },
  {
    "Compound": "Cc1ccc(C(=O)N[C@@H]2CCc3ccc(-c4cn5c(n4)CCC5)cc32)cc1O",
    "Test target": "WDR5 (Homo sapiens (Human))",
    "pKi": 6.15
  },
  {
    "Compound": "COc1cc(C)cc(C(=O)NC2CCc3ccc(-c4cn5c(n4)CCC5)cc32)c1 (stereo not shown)",
    "Test target": "WDR5 (Homo sapiens (Human))",
    "pKi": 7.57
  },
  {
    "Compound": "Cc1ccc(C(=O)N[C@@H]2CCc3ccc(-c4cn5c(n4)CCC5)cc32)c(Cl)n1",
    "Test target": "WDR5 (Homo sapiens (Human))",
    "pKi": 6.77
  }
]

---

Test target: WDR5 (Homo sapiens (Human), UniProt P61964)
Condition parameters: FPA and TR-FRET binding affinity, WDR5 WIN-site
pKi: −log10 of the molar value.
Measurement name: pKi

[
  {
    "Compound": "CC(=O)N1CCCC(C(=O)N[C@@H]2CCCc3ccc(-c4cn5c(n4)CCC5)cc32)C1 (stereo partly drawn)",
    "Measurement name": "pKi",
    "Result": 7.44
  },
  {
    "Compound": "CCOc1cccc(C(=O)NC2CCc3ccc(-c4cn5c(n4)CCC5)cc32)c1 (stereo not drawn)",
    "Measurement name": "pKi",
    "Result": 7.72
  },
  {
    "Compound": "COc1cc(C(=O)N[C@@H]2CCN(C(C)=O)c3ccc(-c4cn5c(n4)CCC5)cc32)ccc1C",
    "Measurement name": "pKi",
    "Result": 7.65
  },
  {
    "Compound": "CC(=O)N1CCCC(C(=O)N[C@@H]2CCc3ccc(-c4cn5c(n4)CCC5)cc32)C1 (stereo partly drawn)",
    "Measurement name": "pKi",
    "Result": 7.76
  },
  {
    "Compound": "CC(=O)Nc1cc(C(=O)N[C@@H]2CCc3ccc(-c4cn5c(n4)CCC5)cc32)ccc1C",
    "Measurement name": "pKi",
    "Result": 6.14
  },
  {
    "Compound": "O=C(N[C@@H]1CCc2ccc(-c3cn4c(n3)CCC4)cc21)c1cncc(F)c1",
    "Measurement name": "pKi",
    "Result": 6.25
  }
]
